# TEST TARGET: rat μ opioid receptors (rMOR) (Rattus norvegicus, UniProt P33535)
# Construct: expressed in transfected cells; host or cells: HN9.10 neuroblastoma cell line, pCDNA3, neomycin-selected clones
# Sequence (P33535 whole entry): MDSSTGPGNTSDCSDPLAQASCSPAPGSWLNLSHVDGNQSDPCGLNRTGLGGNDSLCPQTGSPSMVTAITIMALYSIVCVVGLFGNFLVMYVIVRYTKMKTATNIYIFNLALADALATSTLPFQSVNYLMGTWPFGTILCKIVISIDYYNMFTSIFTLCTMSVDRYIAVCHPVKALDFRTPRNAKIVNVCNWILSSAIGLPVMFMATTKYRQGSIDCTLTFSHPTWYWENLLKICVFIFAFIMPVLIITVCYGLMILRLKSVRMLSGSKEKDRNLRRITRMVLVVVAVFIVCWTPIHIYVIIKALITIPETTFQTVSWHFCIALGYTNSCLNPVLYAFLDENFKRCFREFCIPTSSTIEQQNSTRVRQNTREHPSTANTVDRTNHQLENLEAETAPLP
# TEST DETAILS: biochemical
# Assay type: biochemical
Peptide text beside a SMILES is read from it.
ASSAY METRIC: LogEC50, rMOR, [35S]GTP-γ-S binding

Req: Give recorded LogEC50, rMOR, [35S]GTP-γ-S binding with rat μ opioid receptors (rMOR) (Rattus norvegicus, UniProt P33535) for the following molecule: CC(C)C[C@H](NC(=O)[C@@H]1CCCN1C(=O)CNC(=O)[C@H](Cc1ccccc1)NC(=O)CNC(=O)[C@@H](C)NC(=O)[C@@H](N)Cc1ccc(O)cc1)C(=O)N[C@@H](Cc1c[nH]c2ccccc12)C(=O)OCc1cc(C(F)(F)F)cc(C(F)(F)F)c1 [TY006] (HELM PEPTIDE1{Y.[dA].G.F.G.P.L.W.[FC(F)(F)c1cc(CO[*:1])cc(C(F)(F)F)c1]}$$$$V2.0)
Resp: −7.38 ± 0.20

----------
# TEST TARGET: δ opioid receptors (MVD) (Mus musculus, UniProt P32300)
# Construct: from tissue; host or cells: mouse (ICR) isolated vas deferens
# Sequence (P32300 whole entry): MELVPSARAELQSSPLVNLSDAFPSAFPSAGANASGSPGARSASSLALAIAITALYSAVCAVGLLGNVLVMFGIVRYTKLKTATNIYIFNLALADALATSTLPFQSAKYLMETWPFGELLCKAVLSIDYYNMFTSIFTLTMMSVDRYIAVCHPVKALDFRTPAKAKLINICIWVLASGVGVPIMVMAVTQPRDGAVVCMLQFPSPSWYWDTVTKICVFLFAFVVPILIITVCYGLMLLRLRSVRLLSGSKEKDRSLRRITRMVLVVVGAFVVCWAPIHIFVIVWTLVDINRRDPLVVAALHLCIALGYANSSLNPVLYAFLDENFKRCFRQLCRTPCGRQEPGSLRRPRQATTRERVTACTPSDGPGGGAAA
# TEST DETAILS: Mouse isolated vas deferens (MVD) assay, opioid agonist
# EXPERIMENTAL PARAMETERS: Table 39; read-out: MVD opioid(delta) agonist (IC50; nM)
Peptide text beside a SMILES is read from it.
ASSAY METRIC: IC50

Answered examples (6):
- CC(C)C[C@H](NC(=O)[C@@H]1CCCN1C(=O)CNC(=O)[C@H](Cc1ccccc1)NC(=O)CNC(=O)[C@@H](C)NC(=O)[C@@H](N)Cc1ccc(O)cc1)C(=O)N[C@@H](Cc1c[nH]c2ccccc12)C(=O)OCc1cc(C(F)(F)F)cc(C(F)(F)F)c1 [TY006] (HELM PEPTIDE1{Y.[dA].G.F.G.P.L.W.[FC(F)(F)c1cc(CO[*:1])cc(C(F)(F)F)c1]}$$$$V2.0): 172 nM
- CCCC[C@H](NC(=O)[C@H](Cc1ccccc1)NC(=O)CNC(=O)[C@@H](C)NC(=O)[C@@H](N)Cc1ccc(O)cc1)C(=O)N1CCC[C@H]1C(=O)N[C@@H](CC(C)C)C(=O)N[C@@H](Cc1c[nH]c2ccccc12)C(=O)OCc1cc(C(F)(F)F)cc(C(F)(F)F)c1: 16.8 nM
- CC(C)C[C@H](NC(=O)[C@@H]1CCCN1C(=O)[C@@H](Cc1ccccc1)NC(=O)[C@H](Cc1ccccc1)NC(=O)CNC(=O)[C@@H](C)NC(=O)[C@@H](N)Cc1ccc(O)cc1)C(=O)N[C@@H](Cc1c[nH]c2ccccc12)C(=O)OCc1cc(C(F)(F)F)cc(C(F)(F)F)c1: 412 nM
- CCCC[C@@H]1NC(=O)[C@H](Cc2ccccc2)NC(=O)CNC(=O)[C@H](NC(=O)[C@@H](N)Cc2ccc(O)cc2)CSSC[C@@H](C(=O)N[C@@H](Cc2c[nH]c3ccccc23)C(=O)NCc2cc(C(F)(F)F)cc(C(F)(F)F)c2)NC(=O)[C@@H]2CCCN2C1=O [TY035, [D-Cys^2, Cys^7]TY027] (HELM PEPTIDE1{Y.[dC].G.F.[Nle].P.C.W.[FC(F)(F)c1cc(CN[*:1])cc(C(F)(F)F)c1]}$PEPTIDE1,PEPTIDE1,2:R3-7:R3$$$V2.0; N-terminus assumed): 84.7 nM
- CCCC[C@@H](C(=O)N1CCC[C@H]1C(=O)N[C@@H](CC(C)C)C(=O)N[C@@H](Cc1c[nH]c2ccccc12)C(=O)OCc1cc(C(F)(F)F)cc(C(F)(F)F)c1)N(C)C(=O)[C@H](Cc1ccccc1)NC(=O)CNC(=O)[C@@H](C)NC(=O)[C@@H](N)Cc1ccc(O)cc1: 188 nM
- CC(C)C[C@H](NC(=O)[C@@H]1CCCN1C(=O)[C@H](Cc1ccccc1)NC(=O)[C@H](Cc1ccccc1)NC(=O)CNC(=O)[C@@H](C)NC(=O)[C@@H](N)Cc1ccc(O)cc1)C(=O)N[C@@H](Cc1c[nH]c2ccccc12)C(=O)OCc1cc(C(F)(F)F)cc(C(F)(F)F)c1: 905 nM

Turning now to a further molecule:
Req: IC50 lookup needed for CCCC[C@@H]1NC(=O)[C@H](Cc2ccccc2)NC(=O)CNC(=O)[C@H](NC(=O)[C@@H](N)Cc2ccc(O)cc2)CSSC[C@H](C(=O)N[C@@H](Cc2c[nH]c3ccccc23)C(=O)NCc2cc(C(F)(F)F)cc(C(F)(F)F)c2)NC(=O)[C@@H]2CCCN2C1=O [TY038, [D-Cys^2, D-Cys^7]TY027] (HELM PEPTIDE1{Y.[dC].G.F.[Nle].P.[dC].W.[FC(F)(F)c1cc(CN[*:1])cc(C(F)(F)F)c1]}$PEPTIDE1,PEPTIDE1,2:R3-7:R3$$$V2.0; N-terminus assumed) , thanks.
Resp: 18.9 nM

----------
# TEST TARGET: human δ opioid receptors (hDOR) (Homo sapiens)
# Construct: expressed in transfected cells; host or cells: HN9.10 neuroblastoma cell line, pCDNA3, neomycin-selected clones
# Sequence (P41143 whole entry): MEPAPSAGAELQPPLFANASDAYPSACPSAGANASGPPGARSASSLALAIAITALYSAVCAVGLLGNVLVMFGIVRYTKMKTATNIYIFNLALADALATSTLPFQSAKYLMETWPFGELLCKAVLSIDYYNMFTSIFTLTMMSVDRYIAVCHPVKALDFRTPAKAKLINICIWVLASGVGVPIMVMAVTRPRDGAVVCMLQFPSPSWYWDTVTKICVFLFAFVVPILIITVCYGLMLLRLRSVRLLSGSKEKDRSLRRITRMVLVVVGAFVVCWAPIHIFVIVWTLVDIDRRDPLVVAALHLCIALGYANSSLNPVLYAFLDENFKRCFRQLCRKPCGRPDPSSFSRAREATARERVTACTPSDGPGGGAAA
# TEST DETAILS: Radioligand competition binding, [3H]DPDPE, hDOR membranes
# EXPERIMENTAL PARAMETERS: Table 33; read-out: Ki (nM) hDOR
ASSAY METRIC: Ki (nM)
Please reply with the bare figure in nM and do not write the unit itself.

Req: Please provide the recorded Ki for C[C@@H](NC(=O)[C@@H](N)Cc1ccc(O)cc1)C(=O)N[C@@H](Cc1c[nH]c2ccccc12)C(=O)OCc1cc(C(F)(F)F)cc(C(F)(F)F)c1 , tested on human δ opioid receptors (hDOR) (Homo sapiens).
Resp: 100

----------
# TEST TARGET: human δ opioid receptors (hDOR) (Homo sapiens)
# Construct: expressed in transfected cells; host or cells: HN9.10 neuroblastoma cell line, pCDNA3, neomycin-selected clones
# TEST DETAILS: Radioligand competition binding, [3H]DPDPE, hDOR membranes
# EXPERIMENTAL PARAMETERS: membranes from transfected HN9.10 cells
Quick reference: LogIC50, hDOR, [3H]DPDPE of the listed items.
Number only, please.

• CC(C)C[C@H](NC(=O)[C@@H]1CCCN1C(=O)[C@H](Cc1ccccc1)NC(=O)[C@H](Cc1ccccc1)NC(=O)CNC(=O)[C@@H](C)NC(=O)[C@@H](N)Cc1ccc(O)cc1)C(=O)N[C@@H](Cc1c[nH]c2ccccc12)C(=O)OCc1cc(C(F)(F)F)cc(C(F)(F)F)c1 = −7.50
• CCCC[C@@H](C(=O)N1CCC[C@H]1C(=O)N[C@@H](CC(C)C)C(=O)N[C@@H](Cc1c[nH]c2ccccc12)C(=O)OCc1cc(C(F)(F)F)cc(C(F)(F)F)c1)N(C)C(=O)[C@H](Cc1ccccc1)NC(=O)CNC(=O)[C@@H](C)NC(=O)[C@@H](N)Cc1ccc(O)cc1 = −6.79
• CC(C)C[C@H](NC(=O)[C@@H]1CCCN1C(=O)[C@H](CC(C)C)NC(=O)[C@H](Cc1ccccc1)NC(=O)CNC(=O)[C@@H](C)NC(=O)[C@@H](N)Cc1ccc(O)cc1)C(=O)N[C@@H](Cc1c[nH]c2ccccc12)C(=O)OCc1cc(C(F)(F)F)cc(C(F)(F)F)c1 = −7.97
• CSCC[C@H](NC(=O)[C@H](Cc1ccccc1)NC(=O)CNC(=O)[C@@H](C)NC(=O)[C@@H](N)Cc1ccc(O)cc1)C(=O)N1CCC[C@H]1C(=O)N[C@@H](CC(C)C)C(=O)N[C@@H](Cc1c[nH]c2ccccc12)C(=O)OCc1cc(C(F)(F)F)cc(C(F)(F)F)c1 = −8.22
• CC(C)C[C@H](NC(=O)[C@@H]1CCCN1C(=O)[C@H](CC[S+](C)[O-])NC(=O)[C@H](Cc1ccccc1)NC(=O)CNC(=O)[C@@H](C)NC(=O)[C@@H](N)Cc1ccc(O)cc1)C(=O)N[C@@H](Cc1c[nH]c2ccccc12)C(=O)OCc1cc(C(F)(F)F)cc(C(F)(F)F)c1 (stereo partly shown) = −7.92

Req: Field: LogIC50, hDOR, [3H]DPDPE (human δ opioid receptors (hDOR) (Homo sapiens)). Entry: CC(C)C[C@H](NC(=O)[C@@H]1CCCN1C(=O)[C@@H](Cc1ccccc1)NC(=O)[C@H](Cc1ccccc1)NC(=O)CNC(=O)[C@@H](C)NC(=O)[C@@H](N)Cc1ccc(O)cc1)C(=O)N[C@@H](Cc1c[nH]c2ccccc12)C(=O)OCc1cc(C(F)(F)F)cc(C(F)(F)F)c1
Resp: −6.70

Req: Lab note: need LogIC50, hDOR, [3H]DPDPE with human δ opioid receptors (hDOR) (Homo sapiens) for entry CCCC[C@H](NC(=O)[C@H](Cc1ccccc1)NC(=O)CNC(=O)[C@@H](C)NC(=O)[C@@H](N)Cc1ccc(O)cc1)C(=O)N1CCC[C@H]1C(=O)N[C@@H](CC(C)C)C(=O)N[C@@H](Cc1c[nH]c2ccccc12)C(=O)OCc1cc(C(F)(F)F)cc(C(F)(F)F)c1 , please look it up.
Resp: −8.42
